Exercise: state measured CC50 at 48 h for each of the compounds provided.
assay: Cytotoxicity against human Huh7.5.1 cells after 48 hrs by luciferase reporter gene assay; type: toxicity, cell-based, Huh-7

Please give CC50 at 48 h, item by item, for the list that follows.
1. CC(C)OC(=O)[C@@H](Cc1ccccc1)NP(=O)(OC[C@H]1O[C@@H](n2ccc(=O)[nH]c2=O)[C@@](C)(F)[C@@H]1O)Oc1ccccc1 (stereo partly drawn)
2. CC(C)OC(=O)[C@@H](Cc1c[nH]c2ccccc12)NP(=O)(OC[C@H]1O[C@@H](n2ccc(=O)[nH]c2=O)[C@@](C)(F)[C@@H]1O)Oc1ccccc1 (stereo partly drawn)
3. CCCCCOC(=O)[C@H](C)NP(=O)(OC[C@H]1O[C@@H](n2ccc(=O)[nH]c2=O)[C@@](C)(F)[C@@H]1O)Oc1ccccc1 (stereo partly drawn)

## Output
["> 100 µM", "> 100 µM", "> 100 µM"]

----------
assay: Cytotoxicity against human Huh7.5.1 cells after 48 hrs by luciferase reporter gene assay; type: toxicity, cell-based, Huh-7
Answer each item with its documented CC50 at 48 h.

In the examples that follow, each entry is paired with its recorded CC50 at 48 h.
CC(C)OC(=O)[C@@H](NP(=O)(OC[C@H]1O[C@@H](n2ccc(=O)[nH]c2=O)[C@@](C)(F)[C@@H]1O)Oc1ccccc1)C(C)C (stereo partly drawn); > 100 µM
CC(C)OC(=O)[C@H](C)NP(=O)(OC[C@H]1O[C@@H](n2ccc(=O)[nH]c2=O)[C@@](C)(F)[C@@H]1O)Oc1ccccc1 (stereo partly drawn); > 100 µM

Let us examine a further case.
## Input Check the records and state CC50 at 48 h for C[C@H](NP(=O)(OC[C@H]1O[C@@H](n2ccc(=O)[nH]c2=O)[C@@](C)(F)[C@@H]1O)Oc1ccccc1)C(=O)OCc1ccccc1 (stereo partly drawn)
## Output > 100 µM

----------
system: Hepatitis C virus; assay: Antiviral activity against HCV infected in human Huh7 cells assessed as reduction in viral RNA replication after 4 days; assay type: functional, cell-based, Hepacivirus hominis; conditions: Huh-7, 96 h
measurement.name: pEC50
Answers are plain numbers, as −log10 of the molar value.

## Input Output pEC50 of C[C@@]1(F)[C@H](O)[C@@H](CO)O[C@H]1n1ccc(N)nc1=O
## Output 5.35
